# credit: PubChem BioAssay AID2060485

- System: A375 multi-cell spheroids with HUVEC/MSC, viability
- experiment.description: Anticancer human tumor A375 cell line growth inhibition [GQUAD];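 also: spheroids exposed to compounds for seven days before readout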
- condition.details: curve of first compound; second compound 0.0316 µM
measure.name: IC50 (nM)
Just the number in nM, nothing appended.

Observe how each entry below is paired with its result.
>  <compound>
CC1COCCN1c1cc(C2(O)CC3CCC(C2)O3)c2cnn(-c3ccn[nH]3)c2n1 (stereo unspecified) + Cc1[nH]c2ccc(F)cc2c1-c1nc2c3cccnc3c3ncccc3c2[nH]1

>  <IC50, nM>
339

$$$$
>  <compound>
O=C(NO)c1cnc(N2CCN(S(=O)(=O)c3ccc4ccccc4c3)CC2)nc1 + Cc1[nH]c2ccc(F)cc2c1-c1nc2c3cccnc3c3ncccc3c2[nH]1

>  <IC50, nM>
203

$$$$

# returns recorded IC50 (system: A375 multi-cell spheroids with HUVEC/MSC, viability) for C=CCn1c(=O)c2cnc(Nc3ccc(N4CCN(C)CC4)cc3)nc2n1-c1cccc(C(C)(C)O)n1 + Cc1cnc(CNC(=O)c2c(=O)c3ccc(N4CCCN(C)CC4)nc3n3c2sc2ccccc23)cn1
900

Proceed to C=CCn1c(=O)c2cnc(Nc3ccc(N4CCN(C)CC4)cc3)nc2n1-c1cccc(C(C)(C)O)n1 + CN(C)c1ccc(Nc2c3ccc(NC(=O)CCN4CCCC4)cc3nc3cc(NC(=O)CCN4CCCC4)ccc23)cc1
1160

Proceed to CC1COCCN1c1cc(C2(S(C)(=N)=O)CC2)nc(-c2ccnc3[nH]ccc23)n1 (stereo unspecified) + CN(C)c1ccc(Nc2c3ccc(NC(=O)CCN4CCCC4)cc3nc3cc(NC(=O)CCN4CCCC4)ccc23)cc1
6090

* * *

Below, each entry is listed with its recorded viability, T/C.
- Test system: A375 multi-cell spheroids with HUVEC/MSC, viability
- experiment.description: Anticancer human tumor A375 cell line growth inhibition [GQUAD];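 also: spheroids exposed to compounds for seven days before readout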
- condition.details: second compound 3.16 µM; first compound 10 µM; stronger effect = lower value

Observe how each entry below is paired with its result.
>  <compound>
CC1COCCN1c1cc(-c2ccnn2C)c2ccnc(-c3ccn[nH]3)c2n1 (stereo not given) + Cc1[nH]c2ccc(F)cc2c1-c1nc2c3cccnc3c3ncccc3c2[nH]1

>  <viability, T/C>
9.5%

$$$$
>  <compound>
COc1cccc2c1C(=O)c1c(O)c3c(c(O)c1C2=O)CC(O)(C(=O)CO)CC3OC1CC(N)C(O)C(C)O1 (stereo not given) + Cc1cnc(CNC(=O)c2c(=O)c3ccc(N4CCCN(C)CC4)nc3n3c2sc2ccccc23)cn1

>  <viability, T/C>
0.13%

$$$$
>  <compound>
CCCS(=O)(=O)Nc1ccc(F)c(C(=O)c2c[nH]c3ncc(-c4ccc(Cl)cc4)cc23)c1F + CN(C)c1ccc(Nc2c3ccc(NC(=O)CCN4CCCC4)cc3nc3cc(NC(=O)CCN4CCCC4)ccc23)cc1

>  <viability, T/C>
0.61%

$$$$
>  <compound>
CC(C)(O)C1CCC(Nc2ccc3ncc(-c4cccc(C(F)(F)F)c4)n3n2)CC1 (stereo not given) + Cc1[nH]c2ccc(F)cc2c1-c1nc2c3cccnc3c3ncccc3c2[nH]1

>  <viability, T/C>
20.4%

$$$$

Next compound, please.
Given the entry CC1COCCN1c1cc(C2(O)CC3CCC(C2)O3)c2cnn(-c3ccn[nH]3)c2n1 (stereo not given) + CN(C)c1ccc(Nc2c3ccc(NC(=O)CCN4CCCC4)cc3nc3cc(NC(=O)CCN4CCCC4)ccc23)cc1 , report its measured viability, T/C.
7.14%

* * *

- Test system: A375 multi-cell spheroids with HUVEC/MSC, viability
- experiment.description: Anticancer human tumor A375 cell line growth inhibition [GQUAD];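 also: spheroids exposed to compounds for seven days before readout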
- condition.details: second compound 0.316 µM; first compound 3.16 µM; stronger effect = lower value
measure.name: viability, T/C (%)
Just the number in %, nothing appended.

>  <molecule>
CC1COCCN1c1cc(-c2ccnn2C)c2ccnc(-c3ccn[nH]3)c2n1 (stereo not drawn) + Cc1cnc(CNC(=O)c2c(=O)c3ccc(N4CCCN(C)CC4)nc3n3c2sc2ccccc23)cn1

>  <unit.name>
%

>  <viability, T/C>
13.9

$$$$

Given the entry C#Cc1c(F)ccc2cc(O)cc(-c3ncc4c(N5CC6CCC(C5)N6)nc(OCC56CCCN5CC(F)C6)nc4c3F)c12 (stereo not drawn) + Cc1cnc(CNC(=O)c2c(=O)c3ccc(N4CCCN(C)CC4)nc3n3c2sc2ccccc23)cn1 , report its measured viability, T/C.
58.6

Proceed to O=C(NO)c1cnc(N2CCN(S(=O)(=O)c3ccc4ccccc4c3)CC2)nc1 + Cc1[nH]c2ccc(F)cc2c1-c1nc2c3cccnc3c3ncccc3c2[nH]1
0.19

Proceed to O=C(c1cc(Cc2n[nH]c(=O)c3ccccc23)ccc1F)N1CCN(C(=O)C2CC2)CC1 + Cc1cnc(CNC(=O)c2c(=O)c3ccc(N4CCCN(C)CC4)nc3n3c2sc2ccccc23)cn1
45

Proceed to O=C(c1cc(Cc2n[nH]c(=O)c3ccccc23)ccc1F)N1CCN(C(=O)C2CC2)CC1 + Cc1[nH]c2ccc(F)cc2c1-c1nc2c3cccnc3c3ncccc3c2[nH]1
111

* * *

- System: A375 multi-cell spheroids with HUVEC/MSC, viability
- experiment.description: Anticancer human tumor A375 cell line growth inhibition [GQUAD];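 also: spheroids exposed to compounds for seven days before readout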
- condition.details: curve of first compound; second compound 0.1 µM
measure.name: pIC50
Keep it numeric: pIC50 is minus log10 of the concentration in mol/L.

Observe how each entry below is paired with its result.
>  <compound>
CC1COCCN1c1cc(C2(S(C)(=N)=O)CC2)nc(-c2ccnc3[nH]ccc23)n1 (centres undefined) + CN(C)c1ccc(Nc2c3ccc(NC(=O)CCN4CCCC4)cc3nc3cc(NC(=O)CCN4CCCC4)ccc23)cc1

>  <tested.system>
A375 multi-cell spheroids with HUVEC/MSC, viability

>  <obs.value>
5.23

$$$$
>  <compound>
CC1COCCN1c1cc(-c2ccnn2C)c2ccnc(-c3ccn[nH]3)c2n1 (centres undefined) + CN(C)c1ccc(Nc2c3ccc(NC(=O)CCN4CCCC4)cc3nc3cc(NC(=O)CCN4CCCC4)ccc23)cc1

>  <tested.system>
A375 multi-cell spheroids with HUVEC/MSC, viability

>  <obs.value>
6.52

$$$$
>  <compound>
COc1cccc2c1C(=O)c1c(O)c3c(c(O)c1C2=O)CC(O)(C(=O)CO)CC3OC1CC(N)C(O)C(C)O1 (centres undefined) + Cc1cnc(CNC(=O)c2c(=O)c3ccc(N4CCCN(C)CC4)nc3n3c2sc2ccccc23)cn1

>  <tested.system>
A375 multi-cell spheroids with HUVEC/MSC, viability

>  <obs.value>
7.25

$$$$

Given the entry CC(=O)O[C@H]1C(=O)[C@@]2(C)[C@H]([C@H](OC(=O)c3ccccc3)[C@]3(O)C[C@H](OC(=O)[C@H](O)[C@@H](NC(=O)c4ccccc4)c4ccccc4)C(C)=C1C3(C)C)[C@]1(OC(C)=O)CO[C@@H]1C[C@@H]2O + Cc1cnc(CNC(=O)c2c(=O)c3ccc(N4CCCN(C)CC4)nc3n3c2sc2ccccc23)cn1 , report its measured pIC50.
7.44

Proceed to C=CCn1c(=O)c2cnc(Nc3ccc(N4CCN(C)CC4)cc3)nc2n1-c1cccc(C(C)(C)O)n1 + CN(C)c1ccc(Nc2c3ccc(NC(=O)CCN4CCCC4)cc3nc3cc(NC(=O)CCN4CCCC4)ccc23)cc1
5.91

Proceed to CC(=O)O[C@H]1C(=O)[C@@]2(C)[C@H]([C@H](OC(=O)c3ccccc3)[C@]3(O)C[C@H](OC(=O)[C@H](O)[C@@H](NC(=O)c4ccccc4)c4ccccc4)C(C)=C1C3(C)C)[C@]1(OC(C)=O)CO[C@@H]1C[C@@H]2O + Cc1[nH]c2ccc(F)cc2c1-c1nc2c3cccnc3c3ncccc3c2[nH]1
7.28

* * *

- System: A375 multi-cell spheroids with HUVEC/MSC, viability
- experiment.description: Anticancer human tumor A375 cell line growth inhibition [GQUAD];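 also: spheroids exposed to compounds for seven days before readout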
- condition.details: curve of first compound; second compound 0.1 µM
pIC50: −log10 of the molar value.
measure.name: pIC50

Given the entry CC[C@@]1(O)C(=O)OCc2c1cc1n(c2=O)Cc2cc3c(CN(C)C)c(O)ccc3nc2-1 + Cc1cnc(CNC(=O)c2c(=O)c3ccc(N4CCCN(C)CC4)nc3n3c2sc2ccccc23)cn1 , report its measured pIC50.
7.80

Proceed to C#Cc1c(F)ccc2cc(O)cc(-c3ncc4c(N5CC6CCC(C5)N6)nc(OCC56CCCN5CC(F)C6)nc4c3F)c12 (stereo not given) + CN(C)c1ccc(Nc2c3ccc(NC(=O)CCN4CCCC4)cc3nc3cc(NC(=O)CCN4CCCC4)ccc23)cc1
< 5.00

Proceed to CCCS(=O)(=O)Nc1ccc(F)c(C(=O)c2c[nH]c3ncc(-c4ccc(Cl)cc4)cc23)c1F + Cc1[nH]c2ccc(F)cc2c1-c1nc2c3cccnc3c3ncccc3c2[nH]1
> 7.50

* * *

- Tested on: A375 multi-cell spheroids with HUVEC/MSC, viability
- experiment.description: Anticancer human tumor A375 cell line growth inhibition [GQUAD];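 also: spheroids exposed to compounds for seven days before readout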
- condition.details: second compound 3.16 µM; first compound 0.1 µM; stronger effect = lower value
measure.name: viability, T/C (%)
Just the number in %, nothing appended.

Observe how each entry below is paired with its result.
>  <compound>
CC(C)n1c(=O)n(C)c2cnc3cc(F)c(-c4ccc(OCCCN5CCCCC5)nc4)cc3c21 + Cc1[nH]c2ccc(F)cc2c1-c1nc2c3cccnc3c3ncccc3c2[nH]1

>  <obs.value>
80.2

$$$$
>  <compound>
COc1cccc2c1C(=O)c1c(O)c3c(c(O)c1C2=O)CC(O)(C(=O)CO)CC3OC1CC(N)C(O)C(C)O1 (stereo not given) + Cc1cnc(CNC(=O)c2c(=O)c3ccc(N4CCCN(C)CC4)nc3n3c2sc2ccccc23)cn1

>  <obs.value>
31.4

$$$$

# returns recorded viability, T/C (system: A375 multi-cell spheroids with HUVEC/MSC, viability) for COc1cc(C2c3cc4c(cc3C(OC3OC5COC(C)OC5C(O)C3O)C3COC(=O)C23)OCO4)cc(OC)c1O (stereo not given) + Cc1cnc(CNC(=O)c2c(=O)c3ccc(N4CCCN(C)CC4)nc3n3c2sc2ccccc23)cn1
32.5

Proceed to O=C(c1cc(Cc2n[nH]c(=O)c3ccccc23)ccc1F)N1CCN(C(=O)C2CC2)CC1 + CN(C)c1ccc(Nc2c3ccc(NC(=O)CCN4CCCC4)cc3nc3cc(NC(=O)CCN4CCCC4)ccc23)cc1
97.5

Proceed to CC1COCCN1c1cc(C2(O)CC3CCC(C2)O3)c2cnn(-c3ccn[nH]3)c2n1 (stereo not given) + CN(C)c1ccc(Nc2c3ccc(NC(=O)CCN4CCCC4)cc3nc3cc(NC(=O)CCN4CCCC4)ccc23)cc1
72.7
